test system: Wheat; experiment: post-emergence herbicidal activity, greenhouse; assay type: in vivo; conditions: Table II, 4 WAT, 1.12 kg/h
RECORDED_METRIC: post-emergence herbicidal activity index

Below, each entry is followed by its recorded post-emergence herbicidal activity index result.
[[record]]
smiles_notation = "CSSN(CC#N)CP(=O)(Oc1ccccc1)Oc1ccccc1"
recorded_metric = "post-emergence herbicidal activity index"
endpoint_value = "0 (0-24% control)"

[[record]]
smiles_notation = "N#CCN(CP(=O)(Oc1ccccc1)Oc1ccccc1)SCl"
recorded_metric = "post-emergence herbicidal activity index"
endpoint_value = "1 (25-49% control)"

[[record]]
smiles_notation = "N#CCN(CP(=O)(Oc1ccccc1)Oc1ccccc1)SSc1cccc(C(F)(F)F)c1"
recorded_metric = "post-emergence herbicidal activity index"
endpoint_value = "0 (0-24% control)"

[[record]]
smiles_notation = "N#CCN(CP(=O)(Oc1ccccc1)Oc1ccccc1)SSCCc1ccccc1"
recorded_metric = "post-emergence herbicidal activity index"
endpoint_value = "0 (0-24% control)"

[[record]]
smiles_notation = "CC(C)CCSSN(CC#N)CP(=O)(Oc1ccccc1)Oc1ccccc1"
recorded_metric = "post-emergence herbicidal activity index"
endpoint_value = "0 (0-24% control)"


Turning now to a further record.
Value lookup for post-emergence herbicidal activity index; key = "CC(C)SSN(CC#N)CP(=O)(Oc1ccccc1)Oc1ccccc1" 0 (0-24% control)
